The entries below come with measured melting point values attached.

INSERT INTO assay_data (compound, result) VALUES
  ('CS(=O)(=O)c1nc(C(N)=O)n[nH]1', '172 to 180 °C'),
  ('C=CC(=O)Oc1ccc(C(C)(c2ccc(OC(=O)C=C)cc2)c2ccc(OC(=O)C=C)cc2)cc1', '130 °C'),
  ('Cn1nc(-c2c(NCc3ccccn3)nc(N)nc2-c2ccccc2)ccc1=O', '248 to 250 °C'),
  ('CSc1ccc(Cn2nc(-c3ccc(SC)cc3)c(-c3ccc(F)cc3)cc2=O)cc1', '116 °C'),
  ('CCCOc1ccccc1-c1nc2nc(-c3ccccc3)ncc2c(=O)[nH]1', '203 to 204 °C'),
  ('O=C(CBr)CCc1ccc(I)cc1', '76 to 77 °C');

The compound listed as "O=C(Cc1cccc(C(F)(F)F)c1)Nc1c(Br)cccc1Br" has a reported melting point of 169 to 170 °C

The compound listed as NS(=O)(=O)CS(=O)c1ccc(Cl)c(Cl)c1 (stereo unspecified) has a reported melting point of 205 to 207 °C

---

The entries below come with measured melting point values attached.

Reference set (6 entries):
INSERT INTO measurements (compound, result) VALUES
  ('c1ccc(C(CCOc2ccc(CCC3=NCCO3)cc2)(c2ccccc2)c2ccccc2)cc1', '130 to 131 °C'),
  ('COC(=O)Cc1ccc(CN2CCN(C(c3ccccc3)c3ccccc3)CC2)cc1', '124 to 125 °C'),
  ('CCCCC(CC)COc1cccc(N2C(C)=CC(=C=C3C(C#N)C(=C(C#N)C#N)OC3(C)C)C=C2C)c1 (centres undefined)', '181 °C'),
  ('CC(C)(C)C(=O)Oc1cc(C(=O)OCC[Si](C)(C)C)cc2oc(-c3ccccc3)cc(=O)c12', '205 °C'),
  ('O=C(O)CN1C(=O)C(=Cc2ccccc2)SC1=S', '254 to 256 °C'),
  ('CC(NC(=O)C1=C(C(=O)Nc2cc(OC3CCCC3)c(Cl)cc2F)CCCC1)c1ccccc1 (centres undefined)', '173 to 175 °C');

The compound listed as "CC1(C)C(=O)Nc2ccc(-c3ccc(C#N)o3)cc21" has a reported melting point of 193 to 194 °C

The compound listed as "CSc1c(N)cnc2ccccc12" has a reported melting point of 96 to 98 °C

The compound listed as "COc1cccc(-c2coc3ccc(-c4nnc(C)o4)cc23)c1" has a reported melting point of 127 to 128 °C

---

The entries below come with measured melting point values attached.

The compound listed as Cc1coc2c1C(=O)CC(c1cccs1)C2 (centres undefined) has a reported melting point of 81 to 82 °C

The compound listed as CCCCCC(C)C(C)c1cc(O)c2c(c1)OC(C)(C)C1=C2CN(CC(N)=O)CC1 (centres undefined) has a reported melting point of 165 to 168 °C

The compound listed as "CCOC(=O)c1ccc(N=C(Nc2ccc(C(=O)OCC)cc2)c2ccc([N+](=O)[O-])cc2)cc1" has a reported melting point of 202 to 205 °C

The compound listed as "O=C(O)c1ccc(-n2c(-c3ccccc3)cc3c2CCCC3)cc1O" has a reported melting point of 193 to 195 °C

The compound listed as O=C(C=Cc1ccc(OC(F)(F)F)cc1)N1CCc2c([nH]c3ccccc23)C1c1ccc2c(c1)OCO2 (centres undefined) has a reported melting point of 203 to 205 °C

The compound listed as Cc1c(C)c2c(c(C)c1N)CC(C)(CSCCC(=O)O)O2 (centres undefined) has a reported melting point of 139 to 140 °C

The compound listed as CCCC(C)Nc1c([N+](=O)[O-])cc(S(C)(=O)=O)c(C)c1[N+](=O)[O-] (centres undefined) has a reported melting point of 85 to 88 °C

The compound listed as "O=CC=CC(=C(c1ccc(F)cc1)c1ccc(F)cc1)n1nnnc1-c1ccccc1" has a reported melting point of 198 to 200 °C

The compound listed as COc1cc2c(cc1OC)CCCC(C(=O)N1CCN(Cc3cc(OC)c(OC)c(OC)c3)CC1CN(C)C)=C2 (centres undefined) has a reported melting point of 167 to 169 °C

---

The entries below come with measured melting point values attached.

The molecule listed as "OCCN1CCN(c2ccc3nc(-c4ccc(Cl)s4)c(-c4ccncc4)n3n2)CC1" has a reported melting point of 216 to 218 °C

---

MEASURED METRIC: melting point

Reference set (4 entries):
INSERT INTO measurements (compound, measured_metric, result) VALUES
  ('Cc1cc(CO)n(CCCOc2cc3c(cc2C)OC2(CC(C)(C)c4cc(O)c(C)cc4O2)CC3(C)C)n1 (stereo not given)', 'melting point', '208 to 210 °C'),
  ('Nc1ncc2c(n1)-c1ccccc1C(c1ccccc1)=NC2', 'melting point', '201 to 205 °C'),
  ('COc1ccc(CN2C(=O)C(C)(c3cc(COCCO)ccc3Cl)c3cc(Cl)ccc32)c(OC)c1 (stereo not given)', 'melting point', '53 °C'),
  ('O=C1c2ccccc2-c2c1c1ccccc1c(=O)n2CCO', 'melting point', '201 to 204 °C');

Turning to the following compound.
The compound listed as "Cc1oc(-c2ccccc2)nc1COc1ccc(CCCCc2nnn[nH]2)cn1" has a reported melting point of 104 to 105 °C

---

The entries below come with measured melting point values attached.

INSERT INTO assay_data (compound, measured_metric, result) VALUES
  ('Cc1ccc2c(=O)c(C(=O)O)cn(N)c2n1', 'melting point', '239 to 240 °C'),
  ('CCOC(=O)CNC(=O)c1nnc2ccc(NCCCN3CCC(OC(c4ccccc4)c4ccccc4)CC3)nn12', 'melting point', '152 to 155 °C'),
  ('N#CCNC(=O)c1cccc2ccccc12', 'melting point', '160 to 163 °C');

The compound listed as "COC(=O)CNCCNC(=O)c1nc(Cl)c(N)nc1N" has a reported melting point of 145 to 146 °C

The compound listed as CS(=O)(=O)c1ccc(Oc2ccc3[nH]c(C4=NCC(CC(=O)NCC(F)(F)F)S4)cc3c2)cn1 (stereo not given) has a reported melting point of 234 to 235 °C

The compound listed as "CCOC(=O)CCCn1c(Nc2c(C)nn(C)c2C)nc2c(Cl)ccc(C(CC)CC)c21" has a reported melting point of 177 to 178 °C

The compound listed as "CCn1ccc2c(c1=O)CN=C(N1CCNCC1)N2" has a reported melting point of 117 to 120 °C

The compound listed as "O=c1[nH]c2c3ccccc3ccc2n(Cc2ccccc2)c1=O" has a reported melting point of 308 °C

The compound listed as CCc1ccc(C2C(C(=O)c3ccc(C(C)C)cc3)=C(O)C(=O)N2c2ccc(C)nn2)cc1 (stereo not given) has a reported melting point of 282 to 284 °C

The compound listed as CCN1CCN2C1=Nc1ccc(Cl)cc1C2c1ccccc1 (stereo not given) has a reported melting point of 145 to 146 °C

---

The entries below come with measured melting point values attached.

INSERT INTO measurements (compound, result) VALUES
  ('CC(C)C(=O)CCC(C)C1CCC2C3CC=C4CC(O)CCC4(C)C3CCC12C (stereo unspecified)', '135 to 136 °C');

The compound listed as "C[C@H](/C=C\c1ccc(Cc2ccc(F)cc2)s1)N(O)C(N)=O" has a reported melting point of 123 to 124 °C

The compound listed as "COC(=S)c1ccnc(C)n1" has a reported melting point of 68 °C

The compound listed as "COc1cc2nc(C)nc(Cl)c2cc1OC" has a reported melting point of 182 to 184 °C

The compound listed as "CCOC(=O)N1CCN(c2ccc3nc4[nH]c(=O)[nH]c4cc3c2)CC1" has a reported melting point of > 300 °C

---

MEASURED METRIC: melting point

INSERT INTO measurements (compound, result) VALUES
  ('O=C1NC(=O)C(c2c[nH]c3ccc(Br)cc23)C1c1cc2c3c(ccn3CCC2)c1 (stereo unspecified)', '195 to 200 °C'),
  ('CN(C)CNS(=O)(=O)c1ccc(-c2cnn(Cc3c(F)c(F)c(F)c(F)c3F)c(=O)c2-c2ccc(F)cc2)cc1', '194 to 196 °C'),
  ('O=C(c1ccccc1)c1cnn2c(-c3cccc(NC(=O)C4CC4)c3)ccnc12', '210 to 212 °C'),
  ('CCCCCCc1cnn(-c2ccccn2)c1O', '37 to 38 °C'),
  ('CCCCc1c(C(=O)O)ccc2ccc(OC)cc12', '123 to 125 °C'),
  ('COc1ccc(CNc2ccc(Cl)cc2C(=O)C(F)(F)F)cc1', '82 to 84 °C'),
  ('COCCNC(=O)c1cccc(-c2cccc3c(C)c(Cc4cc(F)cc(Cl)c4)sc23)c1', '132 to 133 °C'),
  ('CC(C)(C)Oc1ccc(C[C@H](NC(=O)OCc2ccccc2)C(=O)C=[N+]=[N-])cc1', '80 to 82 °C');

Turning to the following compound.
The compound listed as CCC(=NC#N)N(C)C(C)c1ccc(Cl)cc1Cl (stereo unspecified) has a reported melting point of 148 °C
